Molecular target: BACE1 in primary mouse cortical neurons (mouse, UniProt P56818 46-501)
Sequence (P56818 46-501): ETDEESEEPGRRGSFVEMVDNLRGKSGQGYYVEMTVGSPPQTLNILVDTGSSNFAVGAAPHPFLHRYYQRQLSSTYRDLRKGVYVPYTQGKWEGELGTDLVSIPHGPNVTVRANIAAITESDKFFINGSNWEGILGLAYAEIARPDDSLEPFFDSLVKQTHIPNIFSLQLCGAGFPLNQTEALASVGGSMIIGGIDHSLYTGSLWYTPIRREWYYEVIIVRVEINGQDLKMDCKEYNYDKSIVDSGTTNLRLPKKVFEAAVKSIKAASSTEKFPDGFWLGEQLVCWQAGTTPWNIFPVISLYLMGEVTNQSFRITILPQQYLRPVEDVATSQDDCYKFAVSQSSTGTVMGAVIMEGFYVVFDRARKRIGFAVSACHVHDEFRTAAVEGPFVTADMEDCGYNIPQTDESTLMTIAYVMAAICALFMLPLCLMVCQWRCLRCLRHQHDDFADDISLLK
Test: cell-based or functional assay
reported.metric: maximal % inhibition of Abeta x-40 (%)
Your answer is read as %, so omit the unit and give the number.

A selection of reference data follows.
binder	maximal % inhibition of Abeta x-40, %
5930 (antibody, V domains shown, anti-BACE1 IgG) VH: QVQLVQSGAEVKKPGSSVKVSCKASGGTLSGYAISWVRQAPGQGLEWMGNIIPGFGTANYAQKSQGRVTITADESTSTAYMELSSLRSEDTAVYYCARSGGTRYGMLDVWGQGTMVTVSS VL: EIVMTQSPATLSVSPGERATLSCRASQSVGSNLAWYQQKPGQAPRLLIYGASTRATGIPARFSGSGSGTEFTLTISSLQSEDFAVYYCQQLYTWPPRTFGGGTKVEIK	74
6270 (antibody, V domains shown, anti-BACE1 IgG) VH: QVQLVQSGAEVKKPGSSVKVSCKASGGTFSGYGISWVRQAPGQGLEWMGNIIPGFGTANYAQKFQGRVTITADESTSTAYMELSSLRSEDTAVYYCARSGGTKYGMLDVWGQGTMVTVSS VL: EIVMTQSPATLSVSPGERATLSCRASQSVSSNLAWYQQKPGQAPRLLIYGASTRATGIPARFSGSGSGTEFTLTISSLQSEDFAVYYCQQLLLWPPRTFGGGTKVEIK	85
5988 (antibody, V domains shown, anti-BACE1 IgG) VH: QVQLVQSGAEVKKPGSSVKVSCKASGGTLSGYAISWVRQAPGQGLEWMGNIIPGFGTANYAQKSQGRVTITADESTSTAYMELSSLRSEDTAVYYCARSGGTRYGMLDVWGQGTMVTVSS VL: GIVMTQSPATLSVSPGERATLSCRASQSVGSNLAWYQQKPGQAPRLLIYGASTRATGIPARFSGSGSGTEFTLTISSLQSEDFAVYYCQQLYTWPPRTFGGGTKVEIK	75
5987 (antibody, V domains shown, anti-BACE1 IgG) VH: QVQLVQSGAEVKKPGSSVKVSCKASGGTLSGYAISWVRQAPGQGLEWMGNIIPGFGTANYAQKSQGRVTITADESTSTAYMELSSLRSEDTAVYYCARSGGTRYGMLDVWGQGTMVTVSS VL: EIVMTQSPATLSVSPGERATLSCRASQSVSSNLAWYQQKPGQAPRLLIYGASTRATGIPARFSGSGSGTEFTLTISSLQSEDFAVYYCQQLFLWPPRTFGGGTKVEIK	69

Proceeding to the next binder to report its maximal % inhibition of Abeta x-40.
Let me know recorded maximal % inhibition of Abeta x-40 for 5984 (antibody, V domains shown, anti-BACE1 IgG) VH: QLQLQESGPGLVKPSETLSLTCTVSGGSISSSSYYWGWIRQPPGKGLEWIGNIYYSGSTYYNPSLKGRVTISVDTSKNQFSLKLSSVTAADTAVYYCARLGHGYNYFDLWGRGTLVTVSS VL: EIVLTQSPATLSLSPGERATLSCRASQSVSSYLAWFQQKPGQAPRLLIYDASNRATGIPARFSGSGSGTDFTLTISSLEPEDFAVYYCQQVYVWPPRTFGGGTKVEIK , thanks. 70
